Origin of the recorded values: patent US20250186541A1

- Assayed target: human DLL3 (Homo sapiens)
- Sequence (Q9NYJ7 27-618): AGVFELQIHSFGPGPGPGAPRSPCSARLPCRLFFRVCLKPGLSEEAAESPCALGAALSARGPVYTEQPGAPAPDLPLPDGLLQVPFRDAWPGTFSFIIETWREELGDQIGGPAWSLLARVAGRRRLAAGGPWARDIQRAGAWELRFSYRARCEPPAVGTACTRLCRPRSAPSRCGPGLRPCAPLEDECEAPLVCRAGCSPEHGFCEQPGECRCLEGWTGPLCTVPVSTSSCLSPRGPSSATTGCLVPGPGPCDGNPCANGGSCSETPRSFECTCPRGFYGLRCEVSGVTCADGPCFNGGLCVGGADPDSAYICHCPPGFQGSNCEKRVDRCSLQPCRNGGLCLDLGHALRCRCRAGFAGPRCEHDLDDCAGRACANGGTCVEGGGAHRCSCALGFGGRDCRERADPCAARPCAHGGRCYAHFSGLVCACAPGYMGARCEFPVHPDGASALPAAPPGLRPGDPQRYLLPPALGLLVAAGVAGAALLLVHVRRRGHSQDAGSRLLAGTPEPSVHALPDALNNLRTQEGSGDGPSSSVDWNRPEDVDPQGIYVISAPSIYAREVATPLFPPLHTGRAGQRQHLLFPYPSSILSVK
pKd: −log10 of the molar value. Bridge positions count the residues as written; N and C are the ends. Square brackets hold non-standard residues; d marks the D form. Peptide text beside a SMILES is read from it. * marks the point of attachment. DOTA = O=C(O)CN1CCN(CC(=O)O)CCN(CC(=O)*)CCN(CC(=O)O)CC1; 1Nal = N[C@@H](Cc1cccc2ccccc12)C(=O)O; Chg = N[C@H](C(=O)O)C1CCCCC1; αMeP = C[C@@]1(C(=O)O)CCCN1
Some compounds, each annotated with its measured pKd.
Value kind: pKd

compound="CC(=O)N[C@@H](CC1CCNCC1)C(=O)N[C@@H](CO)C(=O)N[C@@H](CC(=O)O)C(=O)N[C@H]1CCCC[C@@H](C(=O)N2CCC[C@@]2(C)C(=O)N[C@@H](Cc2ccccc2)C(=O)N[C@@H](CC(=O)O)C(N)=O)NC(=O)[C@H](CC(N)=O)NC(=O)[C@H](Cc2ccc3ccccc3c2)NC(=O)[C@H](Cc2ccc(CNC(=O)CN3CCN(CC(=O)O)CCN(CC(=O)O)CCN(CC(=O)O)CC3)cc2)NC(=O)[C@H](CC(C)(C)C)NC(=O)[C@H](Cc2cccc3ccccc23)NC1=O [compound 209]" inequality_symbol== meas_value=9.23
compound="CSCC[C@H](NC(C)=O)C(=O)N[C@@H](CO)C(=O)N[C@@H](CC(=O)O)C(=O)N[C@H]1CSSC[C@@H](C(=O)N2CCC[C@H]2C(=O)N[C@@H](C)C(=O)N[C@@H](CC(=O)O)C(N)=O)NC(=O)[C@H](CC(N)=O)NC(=O)[C@H](Cc2c[nH]c3ccccc23)NC(=O)[C@H](CCC(N)=O)NC(=O)[C@H](CC(C)C)NC(=O)[C@H](Cc2c[nH]c3ccccc23)NC1=O [compound 28] (Ac-MSDCWLQWNCPAD-NH2; disulfide 4-10)" inequality_symbol=< meas_value=7.00
compound="CC(=O)N[C@@H](CO)C(=O)N[C@@H](CC(=O)O)C(=O)N[C@H]1CSSC[C@@H](C(=O)N2CCC[C@H]2C(=O)N[C@@H](Cc2ccccc2)C(=O)N[C@@H](CC(=O)O)C(=O)N[C@@H](CCCCNC(=O)CN2CCN(CC(=O)O)CCN(CC(=O)O)CCN(CC(=O)O)CC2)C(N)=O)NC(=O)[C@H](CC(N)=O)NC(=O)[C@H](Cc2c[nH]c3ccccc23)NC(=O)[C@H](CCC(N)=O)NC(=O)[C@H](CC(C)C)NC(=O)[C@H](Cc2c[nH]c3ccccc23)NC1=O [compound 86] (Ac-SDCWLQWNCPFDK(DOTA)-NH2; disulfide 3-9)" inequality_symbol== meas_value=7.91
compound="CC(=O)N[C@H](CO)C(=O)N[C@@H](CC(=O)O)C(=O)N[C@H]1CSSC[C@@H](C(=O)N2CCC[C@@]2(C)C(=O)N[C@@H](Cc2ccccc2)C(=O)N[C@@H](CC(=O)O)C(=O)N[C@H](CCCCNC(=O)CN2CCN(CC(=O)O)CCN(CC(=O)O)CCN(CC(=O)O)CC2)C(N)=O)NC(=O)[C@H](CC(N)=O)NC(=O)[C@H](Cc2c[nH]c3ccccc23)NC(=O)[C@H](CCC(N)=O)NC(=O)[C@H](C2CCCCC2)NC(=O)[C@H](Cc2cccc3ccccc23)NC1=O [compound 138] (Ac-[dS]DC[1Nal][Chg]QWNC[αMeP]FD[dK](DOTA)-NH2; disulfide 3-9)" inequality_symbol== meas_value=8.98
